Every entry's value here was drawn from patent US9618524B2.

Assignment: determine reported Semi-quantitative analysis of proteins binding to different plaque particles: Synuclein for the given molecules.
biological target: T1, alpha-synuclein plaque particles (Homo sapiens, UniProt P37840); experiment: Mass spectroscopy proteomics, semi-quantitative binding affinity of serum proteins (plaqueproteome, Table 2); conditions: higher number = stronger affinity
T1 construct: 140 amino acids polypeptide
Simply state the number, no unit and no words.

[ask] So what does the record say about Semi-quantitative analysis of proteins binding to different plaque particles: Synuclein for Serpin B3 (protein) MNSLSEANTKFMFDLFQQFRKSKENNIFYSPISITSALGMVLLGAKDNTAQQIKKVLHFDQVTENTTGKAATYHVDRSGNVHHQFQKLLTEFNKSTDAYELKIANKLFGEKTYLFLQEYLDAIKKFYQTSVESVDFANAPEESRKKINSWVESQTNEKIKNLIPEGNIGSNTTLVLVNAIYFKGQWEKKFNKEDTKEEKFWPNKNTYKSIQMMRQYTSFHFASLEDVQAKVLEIPYKGKDLSMIVLLPNEIDGLQKLEEKLTAEKLMEWTSLQNMRETRVDLHLPRFKVEESYDLKDTLRTMGMVDIFNGDADLSGMTGSRGLVLSGVLHKAFVEVTEEGAEAAAATAVVGFGSSPTSTNEEFHCNHPFLFFIRQNKTNSILFYGRFSSP ?
[reply] 0

[ask] Entry CD5 antigen-like (protein) SPSGVRLVGGLHRCEGRVEVEQKGQWGTVCDDGWDIKDVAVLCRELGCGAASGTPSGILYEPPAEKEQKVLIQSVSCTGTEDTLAQCEQEEVYDCSHDEDAGASCENPESSFSPVPEGVRLADGPGHCKGRVEVKHQNQWYTVCQTGWSLRAAKVVCRQLGCGRAVLTQKRCNKHAYGRKPIWLSQMSCSGREATLQDCPSGPWGKNTCNHDEDTWVECEDPFDLRLVGGDNLCSGRLEVLHKGVWGSVCDDNWGEKEDQVVCKQLGCGKSLSPSFRDRKCYGPGVGRIWLDNVRCSGEEQSLEQCQHRFWGFHDCTHQEDVAVICSG please
[reply] 6

[ask] Let us now turn to Isoform 2 of C4b-binding protein beta chain (protein) ASDEHCPELPPVDNSIFVAKEVEGQILGTYVCIKGYHLVGKKTLFCNASKEWDNTTTECRLGHCPDPVLVNGEFSSSGPVNVSDKITFMCNDHYILKGSNRSQCLEDHTWAPPFPICKSRDCDPPGNPVHGYFEGNNFTLGSTISYYCEDRYYLVGVQEQQCVDGEWSSALPVCKLIQEAPKPECEKALLAFQESKNLCEAMENFMQQLKESGMTMEELKYSLELKKAELKAKLL
[reply] 0

[ask] Here is the next molecule: Ig gamma-2 chain C region (protein) ASTKGPSVFPLAPCSRSTSESTAALGCLVKDYFPEPVTVSWNSGALTSGVHTFPAVLQSSGLYSLSSVVTVPSSNFGTQTYTCNVDHKPSNTKVDKTVERKCCVECPPCPAPPVAGPSVFLFPPKPKDTLMISRTPEVTCVVVDVSHEDPEVQFNWYVDGVEVHNAKTKPREEQFNSTFRVVSVLTVVHQDWLNGKEYKCKVSNKGLPAPIEKTISKTKGQPREPQVYTLPPSREEMTKNQVSLTCLVKGFYPSDISVEWESNGQPENNYKTTPPMLDSDGSFFLYSKLTVDKSRWQQGNVFSCSVMHEALHNHYTQKSLSLSPGK
[reply] 10

[ask] Further, for Apolipoprotein M (protein) MFHQIWAALLYFYGIILNSIYQCPEHSQLTTLGVDGKEFPEVHLGQWYFIAGAAPTKEELATFDPVDNIVFNMAAGSAPMQLHLRATIRMKDGLCVPRKWIYHLTEGSTDLRTEGRPDMKTELFSSSCPGGIMLNETGQGYQRFLLYNRSPHPPEKCVEEFKSLTSCLDSKAFLLTPRNQEACELSNN ?
[reply] 0

[ask] // same read-out, input: Isoform 2 of Nucleophosmin (protein) MEDSMDMDMSPLRPQNYLFGCELKADKDYHFKVDNDENEHQLSLRTVSLGAGAKDELHIVEAEAMNYEGSPIKVTLATLKMSVQPTVSLGGFEITPPVVLRLKCGSGPVHISGQHLVAVEEDAESEDEEEEDVKLLSISGKRSAPGGGSKVPQKKVKLAADEDDDDDDEEDDDEDDDDDDFDDEEAEEKAPVKKGQESFKKQEKTPKTPKGPSSVEDIKAKMQASIEKGGSLPKVEAKFINYVKNCFRMTDQEAIQDLWQWRKSL
[reply] 0

[ask] Please do the same for Ig alpha-2 chain C region (protein) ASPTSPKVFPLSLDSTPQDGNVVVACLVQGFFPQEPLSVTWSESGQNVTARNFPPSQDASGDLYTTSSQLTLPATQCPDGKSVTCHVKHYTNSSQDVTVPCRVPPPPPCCHPRLSLHRPALEDLLLGSEANLTCTLTGLRDASGATFTWTPSSGKSAVQGPPERDLCGCYSVSSVLPGCAQPWNHGETFTCTAAHPELKTPLTANITKSGNTFRPEVHLLPPPSEELALNELVTLTCLARGFSPKDVLVRWLQGSQELPREKYLTWASRQEPSQGTTTYAVTSILRVAAEDWKKGETFSCMVGHEALPLAFTQKTIDRMAGKPTHINVSVVMAEADGTCY as well.
[reply] 10

[ask] Same read-out for Tetranectin (protein) EPPTQKPKKIVNAKKDVVNTKMFEELKSRLDTLAQEVALLKEQQALQTVCLKGTKVHMKCFLAFTQTKTFHEASEDCISRGGTLGTPQTGSENDALYEYLRQSVGNEAEIWLGLNDMAAEGTWVDMTGARIAYKNWETEITAQPDGGKTENCAVLSGAANGKWFDKRCRDQLPYICQFGIV ?
[reply] 0
